B1: C1orf55 (parent)
chain: FTSPDYQQQCHEMAERLEDSVLKG

- Variants of: B1
- Assay comment: protein stability index of a GFP-peptide fusion (GPS, HEK-293T) (PSI 1-6); higher = more stable;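 also: lentivirally expressed fusions sorted by FACS into six bins by GFP to DsRed ratio, PSI derived from sequencing read proportions per bin multiplied by bin number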
- Condition info: c terminus: a fixed tail appended
Measured protein stability index values are reported for all entries that follow.
Lab note: record just the number, no unit beside it.

Guide cases for protein stability index, answers given:
FTSPDYQQQCHEMAEMLEDSVLKG [R16M] ... 2.44
FTSPDYQQQCHNMAERLEDSVLKG [E12N] ... 1.7
FTSPDYQQQCHEMAERLEDIVLKG [S20I] ... 2.26
FTSPDYQQQCHEMHERLEDSVLKG [A14H] ... 2.39
FTSPLYQQQCHEMAERLEDSVLKG [D5L] ... 2.33

Enquiry: Give the value of protein stability index reported for the following: FTSPDYQQQCHEMAERLEDSSLKG [V21S]
Return: 2.56

Enquiry: Note down protein stability index recorded for FTSPDYQQQIHEMAERLEDSVLKG [C10I]
Return: 2.59

Enquiry: Give the reported protein stability index for this variant. FTSPDYQQQCHEMAERLEDSILKG [V21I]
Return: 2.55
